- target: Mu-type opioid receptor (Mus musculus)
- Sequence (P42866 whole entry): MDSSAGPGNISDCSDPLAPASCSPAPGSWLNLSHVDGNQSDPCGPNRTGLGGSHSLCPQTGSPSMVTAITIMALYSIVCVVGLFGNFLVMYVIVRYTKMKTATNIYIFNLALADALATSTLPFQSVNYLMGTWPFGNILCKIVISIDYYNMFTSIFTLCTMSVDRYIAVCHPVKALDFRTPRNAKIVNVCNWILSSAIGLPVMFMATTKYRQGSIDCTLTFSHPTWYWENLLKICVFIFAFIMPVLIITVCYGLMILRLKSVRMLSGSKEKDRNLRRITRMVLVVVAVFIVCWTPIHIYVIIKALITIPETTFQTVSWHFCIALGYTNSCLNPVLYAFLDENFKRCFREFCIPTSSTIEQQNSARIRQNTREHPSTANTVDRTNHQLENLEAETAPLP
- assay_remarks: Antagonist activity at mouse mu opioid receptor expressed in CHO cell membrane assessed as reduction in DAMGO-induced […]-GTPgammaS binding incubated for 1.5 hrs by liquid scintillation counting method
Parameter pEC50: see the listing below.
pEC50 here: minus log base 10 of the concentration, concentration in moles per litre.

Worked examples follow.
What does the data say about its pEC50? Entry: O=C(CCc1cc[nH]n1)N[C@@H]1CC[C@@]2(O)[C@H]3Cc4ccc(O)c5c4[C@@]2(CCN3CC2CC2)[C@H]1O5
8.56

What does the data say about its pEC50? Entry: O=C(CCc1cn[nH]c1)N[C@H]1CC[C@@]2(O)[C@H]3Cc4ccc(O)c5c4[C@@]2(CCN3CC2CC2)[C@H]1O5
7.91

What does the data say about its pEC50? Entry: O=C(N[C@@H]1CC[C@@]2(O)[C@H]3Cc4ccc(O)c5c4[C@@]2(CCN3CC2CC2)[C@H]1O5)c1ncc[nH]1
8.76

New cases:
What does the data say about its pEC50? Entry: O=C(CCc1ncc[nH]1)N[C@@H]1CC[C@@]2(O)[C@H]3Cc4ccc(O)c5c4[C@@]2(CCN3CC2CC2)[C@H]1O5
8.91

What does the data say about its pEC50? Entry: O=C(N[C@H]1CC[C@@]2(O)[C@H]3Cc4ccc(O)c5c4[C@@]2(CCN3CC2CC2)[C@H]1O5)c1cnc[nH]1
8.35

What does the data say about its pEC50? Entry: O=C(N[C@@H]1CC[C@@]2(O)[C@H]3Cc4ccc(O)c5c4[C@@]2(CCN3CC2CC2)[C@H]1O5)c1cnc[nH]1
8.94

What does the data say about its pEC50? Entry: O=C(CCc1cc[nH]n1)N[C@H]1CC[C@@]2(O)[C@H]3Cc4ccc(O)c5c4[C@@]2(CCN3CC2CC2)[C@H]1O5
8.37

What does the data say about its pEC50? Entry: O=C(N[C@@H]1CC[C@@]2(O)[C@H]3Cc4ccc(O)c5c4[C@@]2(CCN3CC2CC2)[C@H]1O5)c1cn[nH]c1
8.75

What does the data say about its pEC50? Entry: O=C(Cc1cc[nH]n1)N[C@@H]1CC[C@@]2(O)[C@H]3Cc4ccc(O)c5c4[C@@]2(CCN3CC2CC2)[C@H]1O5
8.60

What does the data say about its pEC50? Entry: O=C(Cc1ncc[nH]1)N[C@@H]1CC[C@@]2(O)[C@H]3Cc4ccc(O)c5c4[C@@]2(CCN3CC2CC2)[C@H]1O5
8.68

What does the data say about its pEC50? Entry: O=C(N[C@H]1CC[C@@]2(O)[C@H]3Cc4ccc(O)c5c4[C@@]2(CCN3CC2CC2)[C@H]1O5)c1cn[nH]c1
8.91

What does the data say about its pEC50? Entry: O=C(CCc1ncc[nH]1)N[C@H]1CC[C@@]2(O)[C@H]3Cc4ccc(O)c5c4[C@@]2(CCN3CC2CC2)[C@H]1O5
8.37

* * *

- target: Delta-type opioid receptor (Homo sapiens)
- Sequence (P41143 whole entry): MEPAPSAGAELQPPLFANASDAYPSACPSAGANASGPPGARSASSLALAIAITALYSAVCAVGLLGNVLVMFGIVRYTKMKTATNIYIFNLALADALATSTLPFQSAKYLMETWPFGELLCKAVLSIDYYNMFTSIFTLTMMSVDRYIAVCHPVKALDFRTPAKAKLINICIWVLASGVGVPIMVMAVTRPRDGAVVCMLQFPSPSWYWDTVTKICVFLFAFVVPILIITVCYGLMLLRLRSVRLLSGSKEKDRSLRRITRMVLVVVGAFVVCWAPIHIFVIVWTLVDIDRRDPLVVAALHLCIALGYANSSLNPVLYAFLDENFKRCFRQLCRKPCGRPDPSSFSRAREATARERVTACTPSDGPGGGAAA
- assay_remarks: Binding affinity to human delta opioid receptor in presence of SNC80 incubated for 1.5 hrs by competitive radioligand binding assay
metric: Ki (nM)
Respond numerically; units are nM and should not be typed.

Worked examples follow.
What does the data say about its Ki? Entry: O=C(CCc1cnc[nH]1)N[C@H]1CC[C@@]2(O)[C@H]3Cc4ccc(O)c5c4[C@@]2(CCN3CC2CC2)[C@H]1O5
21.5

What does the data say about its Ki? Entry: O=C(Cc1ncc[nH]1)N[C@@H]1CC[C@@]2(O)[C@H]3Cc4ccc(O)c5c4[C@@]2(CCN3CC2CC2)[C@H]1O5
89.8

New cases:
What does the data say about its Ki? Entry: O=C(N[C@H]1CC[C@@]2(O)[C@H]3Cc4ccc(O)c5c4[C@@]2(CCN3CC2CC2)[C@H]1O5)c1cn[nH]c1
37.5

All figures here come from ChEMBL document CHEMBL5046294.
